System: EKVX NSCLC
run-description: NCI tumour cell line growth inhibition, 48 h
recorded-endpoint: TGI

compound="CN(C)CC1CCCCCCCCCC(CN(C)C)C1=O (stereo unspecified)" target_or_test_system="EKVX NSCLC" value_reported="> 54.2 µM"
compound=CC(C)(C)OC(=O)c1ccc(NCC2=CC(=O)C=CC2=O)cc1 target_or_test_system="EKVX NSCLC" value_reported="28.8 µM"
compound=C[CH2][Ge]([CH2]C)([CH2]C)[O]C(=O)CCC(=O)[O][Ge]([CH2]C)([CH2]C)[CH2]C target_or_test_system="EKVX NSCLC" value_reported="> 100 µM"
compound=COc1cc(Nc2nnc3n2S(=O)(=O)c2cc(C)c(Cl)cc2S3)cc(OC)c1 target_or_test_system="EKVX NSCLC" value_reported="> 100 µM"
compound=O=c1[nH]nc(Cn2c3ccc(Br)cc3c3nc4ccccc4nc32)n1C1CCCCC1 target_or_test_system="EKVX NSCLC" value_reported="> 100 µM"

Dear colleague, please send me the reported TGI for CC(C)(C)OC/C=C1\C(=O)O[C@H]2C[C@@H](O[Si](C)(C)C(C)(C)C)C[C@@H]12 when you can.
> 100 µM

---

Test system: OVCAR-3 ovarian
run-description: NCI tumour cell line growth inhibition, 48 h
recorded-endpoint: TGI

sample_smiles=N#Cc1nc(-c2ccccn2)oc1N target_or_test_system="OVCAR-3 ovarian" value_reported="> 100 µM"
sample_smiles=NCCSCc1ccccc1Cl target_or_test_system="OVCAR-3 ovarian" value_reported="82.9 µM"
sample_smiles=COc1ccc2c(Cl)cc(NC(=O)Nc3c(C)cccc3C)nc2c1 target_or_test_system="OVCAR-3 ovarian" value_reported="> 100 µM"
sample_smiles=CCN(CC)CCN(Cc1ccc(F)cc1)c1ccc(CO)c(Cl)c1 target_or_test_system="OVCAR-3 ovarian" value_reported="35.9 µM"

Shift focus to the following entry.
Dear colleague, please send me the reported TGI for C[n+]1c(-c2ccc(/C=N/NC(=O)c3ccc(C(=O)N/N=C/c4ccc(-c5cn6ccccc6[n+]5C)cc4)cc3)cc2)cn2ccccc21 when you can.
> 1000 µM

---

Task for the reader: assign each of the following molecules its reported TGI.
Test system: MDA-MB-435
run-description: NCI tumour cell line growth inhibition, 48 h

molecule="COc1ccc(N=Nc2c(C)c(C#N)c(=S)n(C3OC(CO)C(O)C(O)C3O)c2C)cc1 (stereo not drawn)" value_reported="> 100 µM"
molecule=O=C(NCCN1CCCCC1)c1ccc(I)cc1 value_reported="> 100 µM"

Shift focus to the following entry.
Report value only: TGI, MDA-MB-435, CN(C)S(=O)(=O)n1cnc(CO)c1
> 100 µM

---

System: NCI/ADR-RES ovarian
run-description: NCI tumour cell line growth inhibition, 48 h; in the data active = GI50 below about 0.43 µM; inactive = the rest
Give your call using only these classes: active, inactive

Answered cases to consult:
compound=C/C(=N\NC(=S)N1CC2CCC(CC2)C1)c1cccc(C)n1 assigned_label=active
compound="C=C(CC(=O)O)C(=O)O (tested in a mixture with another compound)" assigned_label=inactive
compound=N=C(N)c1ccc(NCCOCCNc2ccc(C(=N)N)cc2)cc1 assigned_label=inactive
compound=C[n+]1c(-c2ccc(/C=N/NC(=O)c3ccc(C(=O)N/N=C/c4ccc(-c5cn6ccccc6[n+]5C)cc4)cc3)cc2)cn2ccccc21 assigned_label=inactive
compound=CCCCNC(=O)c1cc(NCc2cc(O)ccc2O)ccc1O assigned_label=inactive
compound=COc1cc(N2CCN(C(C)C)CC2)ccc1Nc1nc(Nc2cccc(F)c2C(=O)O)c2cc[nH]c2n1 assigned_label=inactive

// next entry
Could you please tell me the result logged for Nc1nc(N)c2c(n1)NC(c1ccccc1)C1CCc3ccccc3C1=N2 (configuration not stated) in this assay?
inactive
